Every entry's value here was drawn from the supplement of paper PMC5844555.

# reported 3' UTR reporter interaction score; entries follow
# System: FBXW7
# Method: 3' UTR reporter interaction score (median-centred robust z-score of log2 firefly/Renilla activity); higher = less repression of the 3' UTR reporter
# Measurement context: HEK293T; 48 h

Take a look at these entries with their results.
1. UCUAGGCUGGUACUGCUGA; 0.217
2. ACAAAGUGCUUCCCUUUAGAGU; 0.628

// CAGCAGCACACUGUGGUUUGU : 3' UTR reporter interaction score value = -2.99

// AAAGUGCCUCCUUUUAGAGUGU : 3' UTR reporter interaction score value = 0.988

// CCCAGAUAAUGGCACUCUCAA : 3' UTR reporter interaction score value = -0.29
